Experiment: Busulphan kinetics in mice (alone, after PTU pretreatment, or with high-dose THT)
Settings: male, C57BL/6N, mouse, plasma, ip, 25 mg/kg, Cmax, Group 2: mice, Bu 25mg/kg i.p. after PTU 3mg/kg i.p. once daily for 3 days; mean
valueKind: Cmax

>>> reportedresult("CS(=O)(=O)OCCCCOS(C)(=O)=O [Bu, Busulphan]")
"25.5 µM"

====

Experiment: Busulphan kinetics in mice (alone, after PTU pretreatment, or with high-dose THT)
Settings: male, C57BL/6N, mouse, plasma, ip, 25 mg/kg, AUC, Group 2: mice, Bu 25mg/kg i.p. after PTU 3mg/kg i.p. once daily for 3 days; mean
valueKind: AUC (µM·h)

>>> reportedresult("CS(=O)(=O)OCCCCOS(C)(=O)=O")
65.3
